- target under test: T1, mouse ACVR2A (mouse, UniProt P27038 20-135, limits assumed); also: test concentration or dose not given here
- T1 construct: coated antigen of the initial ELISA
- T1 sequence (P27038 20-135 limits assumed): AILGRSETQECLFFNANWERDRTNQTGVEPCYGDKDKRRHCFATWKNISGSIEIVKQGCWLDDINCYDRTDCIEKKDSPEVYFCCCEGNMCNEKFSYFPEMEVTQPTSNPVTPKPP
- assay notes: ELISA
measured metric: optical density (OD)
Hi! Could you send only the number? It should be in OD, unit omitted.

INSERT INTO results (binder, measured_metric, recorded_result) VALUES
  ('371_H04 (antibody, V domains shown, Group III) VH: EVQLLESGGGLVQPGGSLRLSCAASGFTFSSYGMNWVRQAPGKGLEWVSNINYNGGYTGYADSVKGRFTISRDNSKNTLYLQMNSLRAEDTAVYYCARGANWHDTALDYWGQGTLVTVSS VL: DIQMTQSPSSLSASVGDRVTITCRASQSILTYLNWYQQKPGKAPKLLIYAATSRASGVPSRFSGSGSGTDFTLTISSLQPEDFATYYCQQSYNSPLTFGGGTKVEIK', 'optical density', 3.51),
  ('373_H09 (antibody, V domains shown, Group III) VH: EVQLLESGGGLVQPGGSLRLSCAASGFTFSSYGMNWVRQAPGKGLEWVASINYNSGYKSYADSVKGRFTISRDNSKNTLYLQMNSLRAEDTAVYYCARGANWHDTHLDYWGQGTLVTVSS VL: DIQMTQSPSSLSASVGDRVTITCRASQSIITYLNWYQQKPGKAPKLVIYAATSRASGVPSRFSGSGSGTDFTLTISSLQPEDFATYYCQQSDDSPLTFGGGTKVEIK', 'optical density', 1.35);

Consider the record given below.
IN: Look up optical density for this binder: 374_G09 (antibody, V domains shown, Group III) VH: EVQLLESGGGLVQPGGSLRLSCAASGFTFSSYSMNWVRQAPGKGLEWVAGINYNGGYKGYADSVKGRFTISRDNSKNTLYLQMNSLRAEDTAVYYCARGANWHDTHLDYWGQGTLVTVSS VL: DIQMTQSPSSLSASVGDRVTITCRASQSIVRYLNWYQQKPGKAPKLVIYAATSLASGVPSRFSGSGSGTDFTLTISSLQPEDFATYYCQQSYELPLTFGGGTKVEIK
OUT: 3.6
